Ref: patent US20070128217A1

System: antibodies in sera from SARS patients (sera 1a, 1b, 2, 6, 37, 62, London, SARS-yellow, SARS-green)
Assay type: binding, human
For each entry below, report its Binding of serum 1a to linear peptides of protein N of SARS-CoV Urbani value.

### Prompt Which Binding of serum 1a to linear peptides of protein N of SARS-CoV Urbani value belongs to LPYGANKEGIVWVAT ?
### Response 0.2

### Prompt Which Binding of serum 1a to linear peptides of protein N of SARS-CoV Urbani value belongs to RWYFYYLGTGPEASL ?
### Response 0.3

### Prompt Which Binding of serum 1a to linear peptides of protein N of SARS-CoV Urbani value belongs to EVTPSGTWLTYHGAI ?
### Response 0.2

### Prompt Which Binding of serum 1a to linear peptides of protein N of SARS-CoV Urbani value belongs to VPINTNSGPDDQIGY ?
### Response 0.3

### Prompt Which Binding of serum 1a to linear peptides of protein N of SARS-CoV Urbani value belongs to TYHGAIKLDDKDPQF ?
### Response 0.3

### Prompt Which Binding of serum 1a to linear peptides of protein N of SARS-CoV Urbani value belongs to SPRWYFYYLGTGPEA ?
### Response 0.3

### Prompt Which Binding of serum 1a to linear peptides of protein N of SARS-CoV Urbani value belongs to ALTQHGKEELRFPRG ?
### Response 0.3

### Prompt Which Binding of serum 1a to linear peptides of protein N of SARS-CoV Urbani value belongs to MSDNGPQSNQRSAPR ?
### Response 0.2

### Prompt Which Binding of serum 1a to linear peptides of protein N of SARS-CoV Urbani value belongs to EAQPLPQRQKKQPTV ?
### Response 0.2
